# melting point per record follows

Compound | melting point
CC1(C)CN(C2CC3(C)C(CCC4C3CCC3(C)C(C(=O)CSC#N)CCC43)CC2O)CCO1 (configuration not stated) | 166 °C
COCCc1nc2c(N)nc3ccccc3c2n1CC1(O)CCOCC1 | 205 to 206 °C
c1ccc(C2=NN=C(N3CCSCC3)SC2)cc1 | 160 °C
CC(=Cc1ccc(O)c(Cl)c1)[N+](=O)[O-] | 91 to 93 °C
CCOC(=O)C(C)=C(CC)NC(=O)Nc1cc(OC(C)C)c(Cl)cc1F | 104 to 106 °C

Given the entry CC1(NCC(O)c2ccc3nnnn3c2)CC1 (configuration not stated) , report its measured melting point.
72 to 73 °C

* * *

# melting point per record follows

Known melting point results, listed for orientation:
Compound | melting point
O=C1Cc2cc3c(cc2CCN1Cc1ccccc1)OCO3 | 141 to 142 °C
CCOC(=O)c1c(Cl)c2cc(Oc3ccc(C(F)(F)F)cc3)ccc2n1-c1ccc(OC(C)C)cc1 | 136 to 138 °C

Proceed to the following item.
Given the entry Cn1ncc(/C=C/C(=O)Nc2ccc(CN)cc2)c1-c1ccc(F)cc1 , report its measured melting point.
201 to 202 °C

* * *

Observation type: melting point (°C)
Use °C as the unit, but write only the number.

Smiles string | melting point, °C
Cc1nc2n(c(=O)c1CCO)CCCS2 | 155

Proceed to the following item.
Given the entry COC(=O)c1ccc(Cl)c(Cn2nc(C(F)(F)F)n(C)c2=O)c1Cl , report its measured melting point.
109

* * *

# melting point per record follows
Use °C as the unit, but write only the number.

Smiles string | Unit tag | Reading
Clc1nc(-c2ccc(Br)cc2)nc(Cl)c1-c1ccccc1 | °C | 133
CC(C)C1(C(C)C)CC(c2ccc(N)cc2)=CC=C1N | °C | 288

Proceed to the following item.
Given the entry C[C@@H]1N=C(c2ccccc2)c2cc(I)ccc2N(C)C1=O , report its measured melting point.
115

* * *

Observation type: melting point (°C)
Use °C as the unit, but write only the number.

Compound | Reading
CC1ON(C)C(=O)C(C(=O)c2ccc(Cl)cc2[N+](=O)[O-])C1=O (stereo not given) | 128

Proceed to the following item.
Given the entry N#CC(c1ccccc1)c1ccc(Cl)nn1 (stereo not given) , report its measured melting point.
131

* * *

# melting point per record follows

Known melting point results, listed for orientation:
Compound | Observation type | Reading
Clc1ccc2scc(-c3ccncc3)c2c1 | melting point | 90 to 91 °C
COC(=O)CCCn1sc(Cl)cc1=O | melting point | 54 to 56 °C
FC(F)(F)c1cccc(-c2ccnc(S)n2)c1 | melting point | 200 to 205 °C
CN1Cc2c(C#N)ncn2-c2ccsc2C1=O | melting point | 206 to 208 °C
CCCCCNc1nc(NC(C)C)c2ncn(CC(=O)O)c2n1 | melting point | 173 to 176 °C

Proceed to the following item.
Given the entry COc1cc(N)c(Cl)cc1C(=O)CC(O)c1ccncc1 (stereo unspecified) , report its measured melting point.
181 to 183 °C

* * *

# melting point per record follows

Known melting point results, listed for orientation:
Compound | melting point
CC(C)c1nccn1N=Cc1cc(C(C)(C)C)c(O)c(C(C)(C)C)c1 | 159 to 160 °C
c1ccc(-c2ncc(-c3n[nH]c(-c4cccnc4)n3)cn2)cc1 | 322 to 333 °C
Cc1cnc2c(c1)CCCC2NC(=S)NC(=O)c1ccccc1 (stereo not given) | 168 °C

Given the entry CCOC(=O)c1c(Cl)nc2cc(F)c(F)cc2c1CCl , report its measured melting point.
264 °C

Further, for CCOC(=O)c1cnccc1CCCOc1cccnc1Oc1cccc(Cl)c1 ?
140 to 164 °C

Further, for COc1ccc(-c2c(CO)cc(OC)c(OC)c2OC)c(CO)c1OS(C)(=O)=O ?
124 to 126 °C

Further, for CSc1nc(C)cc(OC(F)F)n1 ?
40 to 42 °C

Further, for CCN(CC)CCNC(=O)c1ccc2cc(I)ccc2n1 ?
75 to 77 °C

Further, for NCC=Cc1ccc(NC(=O)c2ccccc2-c2ccc(C(F)(F)F)cc2)cc1 ?
190 °C

Further, for COC(=O)C1Oc2ccccc2Cc2ccccc2O1 ?
107 to 110 °C
